All figures here come from the supplement of paper PMC5303821.

Tested on: Aspergillus nidulans_XP_660563
Assay: maximal growth rate with compound as sole sulfur source (OD600 per h); higher = better growth / uptake of the sulfur source
Conditions: sulfur source concentration 200 µM; S. cerevisiae S288C/BY sul1Δ sul2Δ soa1Δ with transporter ortholog inserted at SOA1 locus; sulfur-free B medium, 4% glucose, pH 6.5, sole sulfur source
Where a name gives a salt, the structure may show the parent alone.
List of maximal growth rate values.

COMPOUND	maximal growth rate
NCCS(=O)(=O)O [Taurine]	0.00581
O=S(=O)(O)CO [Hydroxymethane sulfonate]	0.00603
O=S(=O)(O)O [sulfate]	0.00621
O=C(O)CS(=O)(=O)O [Sulfoacetic acid]	0.00621
O=S(O)O [sulfite]	0.00646
N[C@@H](CS(=O)(=O)O)C(=O)O [L-cysteic acid]	0.00641
O=S(=O)(O)CCO [Isethionate]	0.00647
C[N+](C)(C)CCOS(=O)(=O)[O-] [Choline sulfate]	0.0061
CCCCS(=O)(=O)O [Butanesulfonate]	0.00657
CCCS(=O)(=O)O [Propanesulfonate]	0.00627
CSCC[C@H](N)C(=O)O [Methionine]	0.13
CCS(=O)(=O)O [Ethanesulfonate]	0.00579
